Attribution: ChEMBL document CHEMBL1156229

target: Autotaxin (Homo sapiens, UniProt Q13822); assay: Inhibition of human recombinant C-terminal FLAG-tagged autotaxin expressed in baculovirus-infected Sf9 cells assessed as FS-3 hydrolysis at 10 uM relative to control
READOUT_KIND: inhibition (%)
Your answer should be a plain number; it is taken to be in %.

Report inhibition, nothing else, for this molecule: "Nc1ccc2cc(S(=O)(=O)O)cc(O)c2c1/N=N/c1ccc(NC(=O)Nc2ccc(/N=N/c3c(N)ccc4cc(S(=O)(=O)O)cc(O)c34)c(S(=O)(=O)O)c2)cc1S(=O)(=O)O"
22

Report inhibition, nothing else, for this molecule: "CC(=O)Nc1cc(S(=O)(=O)O)cc2cc(S(=O)(=O)O)c(/N=N/c3ccc(C(=O)Nc4ccc(S(=O)(=O)O)cc4)cc3)c(O)c12"
17

Report inhibition, nothing else, for this molecule: "COc1cc(/N=N/c2ccc(/N=N/c3cc(S(=O)(=O)O)ccc3S(=O)(=O)O)c(C)c2)c(C)cc1/N=N/c1ccc(NC(=O)c2ccc(N)cc2)cc1C"
39

----------
Please go through the items and note down their inhibition.
molecular target: Autotaxin (Homo sapiens, UniProt Q13822); assay: Inhibition of human recombinant C-terminal FLAG-tagged autotaxin expressed in baculovirus-infected Sf9 cells assessed as FS-3 hydrolysis at 10 uM relative to control
Your answer should be a plain number; it is taken to be in %.

Report inhibition, nothing else, for this compound: NC(Cc1ccc(O)cc1)C(=O)NCCS(=O)(=O)O (stereo not drawn)
1

Report inhibition, nothing else, for this compound: "Nc1cc(N)c(/N=N/c2cccc3c(S(=O)(=O)O)cccc23)cc1/N=N/c1cc([N+](=O)[O-])ccc1O"
19

Report inhibition, nothing else, for this compound: "Nc1c(/N=N/c2ccc(-c3ccc(/N=N/c4cc(S(=O)(=O)O)c5ccccc5c4N)cc3)cc2)cc(S(=O)(=O)O)c2ccccc12"
82

----------
target: Autotaxin (Homo sapiens, UniProt Q13822); experiment: Inhibition of human recombinant C-terminal FLAG-tagged autotaxin expressed in baculovirus-infected Sf9 cells assessed as FS-3 hydrolysis
READOUT_KIND: pIC50
Notebook: values listed as pIC50 are -log10 of the concentration (mol/L).

Report pIC50, nothing else, for this molecule: "Nc1ccc2cc(S(=O)(=O)O)cc(O)c2c1/N=N/c1ccc(-c2ccc(/N=N/c3c(S(=O)(=O)O)cc4cc(S(=O)(=O)O)c(/N=N/c5ccc([N+](=O)[O-])cc5)c(N)c4c3O)cc2)cc1"
4.76

Report pIC50, nothing else, for this molecule: "Nc1ccc2cc(S(=O)(=O)O)cc(O)c2c1/N=N/c1ccc(NC(=O)c2ccc(C(=O)Nc3ccc(/N=N/c4c(N)ccc5cc(S(=O)(=O)O)cc(O)c45)c(S(=O)(=O)O)c3)cc2)cc1S(=O)(=O)O"
5.01

Report pIC50, nothing else, for this molecule: "Cc1ccccc1/N=N/c1c(S(=O)(=O)O)cc2cc(NC(=O)Nc3ccc4c(O)c(/N=N/c5ccc6cc(S(=O)(=O)O)ccc6c5)c(S(=O)(=O)O)cc4c3)ccc2c1O"
4.94

Report pIC50, nothing else, for this molecule: "COc1ccccc1/N=N/c1c(S(=O)(=O)O)cc2cc(NC(=O)Nc3ccc4c(O)c(/N=N/c5c(N)ccc6cc(S(=O)(=O)O)ccc56)c(S(=O)(=O)O)cc4c3)ccc2c1O"
4.94

Report pIC50, nothing else, for this molecule: Nc1c(/N=N/c2ccc(-c3ccc(/N=N/c4cc(S(=O)(=O)O)c5ccccc5c4N)cc3)cc2)cc(S(=O)(=O)O)c2ccccc12 [CONGO RED]
5.88

Report pIC50, nothing else, for this molecule: "O=C(Nc1ccc2cc(S(=O)(=O)O)ccc2c1)c1ccc(/N=N/c2c(S(=O)(=O)O)cc3cc(S(=O)(=O)O)cc(NC(=O)c4ccccc4)c3c2O)cc1"
5.05

Report pIC50, nothing else, for this molecule: "Cc1cc(-c2ccc(/N=N/c3c(N)c(S(=O)(=O)O)cc4cc(S(=O)(=O)O)ccc34)c(C)c2)ccc1/N=N/c1cc(S(=O)(=O)O)c2ccccc2c1N"
4.87

Report pIC50, nothing else, for this molecule: "COc1cc(/N=N/c2c(S(=O)(=O)O)cc3cc(NC(=O)Nc4ccc5c(O)c(/N=N/c6ccc7cc(S(=O)(=O)O)ccc7c6)c(S(=O)(=O)O)cc5c4)ccc3c2O)c(C)cc1N"
4.86

Report pIC50, nothing else, for this molecule: "Cc1ccc(/N=N/c2c(S(=O)(=O)O)cc3cc(NC(=O)Nc4ccc5c(O)c(/N=N/c6ccc7cc(S(=O)(=O)O)ccc7c6)c(S(=O)(=O)O)cc5c4)ccc3c2O)c(C)c1"
4.73

Report pIC50, nothing else, for this molecule: "COc1cc(/N=N/c2cc(S(=O)(=O)O)cc3cc(S(=O)(=O)O)cc(O)c23)c(C)cc1/N=N/c1c(S(=O)(=O)O)cc2cc(Nc3ccccc3)ccc2c1O"
4.42

Report pIC50, nothing else, for this molecule: "O=C(Nc1cc(S(=O)(=O)O)cc2cc(S(=O)(=O)O)c(/N=N/c3cc(Nc4nc(O)nc(Nc5ccc(S(=O)(=O)O)cc5)n4)ccc3S(=O)(=O)O)c(O)c12)c1ccccc1"
5.14
